meta.source: the NIST ThermoML archive (doi:10.1021/acs.jced.9b00442)

experimental.setup: 343.15 K; 100 kPa; Liquid; Concentric cylinders viscometry
Binary call on viscosity: class 1 from 30 mPa·s upward, class 0 beneath that.

> print(dat)
                               entry.smiles    label
1  CC[N+](C)(CCO)CCO.O=S(=O)([N-]S(=O)(=O)C(F)(F)F)C(F)(F)F  class 1
2  CCCC[N+](CCO)(CCO)CCO.O=S(=O)([N-]S(=O)(=O)C(F)(F)F)C(F)(F)F  class 1
3  CC[N+](C)(C)CCCO.O=S(=O)([N-]S(=O)(=O)C(F)(F)F)C(F)(F)F  class 0
4  CC[N+](CCO)(CCO)CCO.O=S(=O)([N-]S(=O)(=O)C(F)(F)F)C(F)(F)F  class 1
5  CCCC[N+](C)(C)CC.O=S(=O)([N-]S(=O)(=O)C(F)(F)F)C(F)(F)F  class 0

Say whether "CC[N+](C)(C)CCOC.O=S(=O)([N-]S(=O)(=O)C(F)(F)F)C(F)(F)F" shows viscosity of 30 mPa·s or more.
class 0

And "C[N+](CCO)(CCO)CCO.O=S(=O)([N-]S(=O)(=O)C(F)(F)F)C(F)(F)F" ?
class 1
